Assay: Stability in simulated gastric fluid (SGF)
Type: in vitro ADME

[
  {
    "molecule": "CC(=O)N[C@@H]1[C@H](Oc2cccc(C#N)c2-c2cccc(NS(C)(=O)=O)c2)OC(CO)[C@H](O)[C@@H]1O (stereo partly drawn)",
    "unit-annotation": "%",
    "SGF % remaining 6 h": 86.77
  },
  {
    "molecule": "CC(=O)N[C@H]1[C@H](Oc2cccc(C)c2-c2cccc(NS(=O)(=O)C3CC3)c2)O[C@H](CO)[C@H](O)[C@@H]1O",
    "unit-annotation": "%",
    "SGF % remaining 6 h": 100.00
  },
  {
    "molecule": "CC(=O)N[C@@H]1[C@H](Oc2cccc(C(F)(F)F)c2-c2cccc(NS(C)(=O)=O)c2)OC(CO)[C@H](O)[C@@H]1O (stereo partly drawn)",
    "unit-annotation": "%",
    "SGF % remaining 6 h": 89.25
  }
]

----------
Target: FmlHLD (Escherichia coli, UniProt P77588)
Construct: 6xHis (C); made in house; host or cells: E. coli C600, periplasm, pTRC99a
Sequence (P77588 25-182): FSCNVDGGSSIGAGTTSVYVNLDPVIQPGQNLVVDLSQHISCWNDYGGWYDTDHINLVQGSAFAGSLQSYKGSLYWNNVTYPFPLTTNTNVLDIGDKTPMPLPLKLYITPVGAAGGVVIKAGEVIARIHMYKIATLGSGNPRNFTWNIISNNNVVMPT
Assay: biochemical
Format: binding, E. coli
Conditions: read-out: PI(1) (average percent inhibition), compound at 1 μM; Table 4
Property: inhibition at 1 µM; scope: individual compounds
parameter-measured: inhibition at 1 µM (%)

[
  {
    "structure": "CC(=O)N[C@H]1[C@H](Oc2ccccc2-c2cccc(F)c2)O[C@H](CO)[C@H](O)[C@@H]1O",
    "measured-number": 11.8
  },
  {
    "structure": "COc1ccc(OS(C)(=O)=O)cc1-c1ccccc1O[C@@H]1O[C@H](CO)[C@H](O)[C@H](O)[C@H]1NC(C)=O",
    "measured-number": 0
  },
  {
    "structure": "CC(=O)N[C@H]1[C@H](Oc2ccccc2-c2cccc(C(N)=O)c2)O[C@H](CO)[C@H](O)[C@@H]1O",
    "measured-number": 3.52
  }
]

----------
Target: FmlHLD (Escherichia coli)
Construct: 6xHis (C); made in house; host or cells: E. coli C600, periplasm, pTRC99a
Test: biochemical
Type: binding, E. coli
Settings: read-out: PI(1) (average percent inhibition), compound at 1 μM; Table 4
parameter-measured: inhibition at 1 µM (%)

[
  {
    "compound": "CC(C)(C)NC(=O)CN(C(=O)c1cccc2cccnc12)[C@@H]1O[C@H](CO)[C@H](O)[C@H](O)[C@H]1O",
    "parameter-measured": "inhibition at 1 µM",
    "measured-number": 10.8
  },
  {
    "compound": "CC(=O)N[C@H]1[C@H](Oc2ccccc2-c2cccc([N+](=O)[O-])c2)O[C@H](CO)[C@H](O)[C@@H]1O",
    "parameter-measured": "inhibition at 1 µM",
    "measured-number": 9.25
  },
  {
    "compound": "CC(=O)N[C@H]1[C@H](Oc2ccccc2-c2cccc(NS(C)(=O)=O)c2)O[C@H](CO)[C@H](O)[C@@H]1O",
    "parameter-measured": "inhibition at 1 µM",
    "measured-number": 81.4
  },
  {
    "compound": "CC(=O)N[C@H]1[C@H](Oc2ccccc2-c2cccc(C(=O)N(C)C)c2)O[C@H](CO)[C@H](O)[C@@H]1O",
    "parameter-measured": "inhibition at 1 µM",
    "measured-number": -3.61
  },
  {
    "compound": "COc1ccc(O)cc1-c1ccccc1O[C@@H]1O[C@H](CO)[C@H](O)[C@H](O)[C@H]1NC(C)=O",
    "parameter-measured": "inhibition at 1 µM",
    "measured-number": 34.2
  },
  {
    "compound": "CC(=O)N[C@H]1[C@H](Oc2ccccc2-c2cccc(C#N)c2)O[C@H](CO)[C@H](O)[C@@H]1O",
    "parameter-measured": "inhibition at 1 µM",
    "measured-number": 20.9
  },
  {
    "compound": "CC(=O)N[C@H]1[C@H](Oc2cccc3cc4ccccc4nc23)O[C@H](CO)[C@H](O)[C@@H]1O",
    "parameter-measured": "inhibition at 1 µM",
    "measured-number": 15.4
  },
  {
    "compound": "CNC(=O)c1cccc(-c2ccccc2O[C@@H]2O[C@H](CO)[C@H](O)[C@H](O)[C@H]2NC(C)=O)c1",
    "parameter-measured": "inhibition at 1 µM",
    "measured-number": 12.3
  },
  {
    "compound": "CC(=O)N[C@H]1[C@H](Oc2ccc3ccncc3c2)O[C@H](CO)[C@H](O)[C@@H]1O",
    "parameter-measured": "inhibition at 1 µM",
    "measured-number": 20.2
  },
  {
    "compound": "CC(=O)N[C@H]1[C@H](Oc2cccc3cccnc23)O[C@H](CO)[C@H](O)[C@@H]1O",
    "parameter-measured": "inhibition at 1 µM",
    "measured-number": 21
  },
  {
    "compound": "CC(=O)N[C@H]1[C@H](Oc2cccc3ccncc23)O[C@H](CO)[C@H](O)[C@@H]1O (stereo in doubt)",
    "parameter-measured": "inhibition at 1 µM",
    "measured-number": 23.5
  },
  {
    "compound": "CC(=O)N[C@H]1[C@H](Oc2ccccc2-c2cccc(O)c2)O[C@H](CO)[C@H](O)[C@@H]1O",
    "parameter-measured": "inhibition at 1 µM",
    "measured-number": 17.7
  },
  {
    "compound": "CC(=O)Nc1cccc(-c2ccccc2O[C@@H]2O[C@H](CO)[C@H](O)[C@H](O)[C@H]2NC(C)=O)c1",
    "parameter-measured": "inhibition at 1 µM",
    "measured-number": 67.9
  },
  {
    "compound": "COc1ccc(C(=O)O)cc1-c1ccccc1O[C@@H]1O[C@H](CO)[C@H](O)[C@H](O)[C@H]1NC(C)=O",
    "parameter-measured": "inhibition at 1 µM",
    "measured-number": 15.9
  },
  {
    "compound": "CC(=O)N[C@@H]1[C@@H](O)[C@@H](O)[C@@H](CO)O[C@H]1N(CC(=O)NC(C)(C)C)C(=O)c1cccc2cccnc12",
    "parameter-measured": "inhibition at 1 µM",
    "measured-number": 5.57
  }
]
